Catalogue of Ratio IC50 readings, one per entry.
TARGET_OR_TEST_SYSTEM: Glutamate NMDA receptor (Rattus norvegicus) (UniProt P35439+Q00959+Q00960+Q00961+Q62645+Q8VHN2+Q9R1M7)
TEST_PROTOCOL: Ratio of IC50 for displacement of [3H]-MK-801 from rat cortical membranes NMDA receptor in presence of 30 uM spermine to IC50 for displacement of [3H]-MK-801 from rat cortical membranes NMDA receptor in absence of 30 spermine

### Prompt Which Ratio IC50 is listed for `CC(C)/N=C(\N)c1ccc(N2CCCN(c3ccc(/C(N)=N/C(C)C)cc3)CC2)cc1` ?
### Response 25.3

### Prompt Which Ratio IC50 is listed for `N=C(NCCO)c1ccc(N2CCCN(c3ccc(/C(N)=N/CCO)cc3)CC2)cc1` ?
### Response 35.7

### Prompt Which Ratio IC50 is listed for `N=C(N)c1ccc(-c2ccc(-c3ccc(C(=N)N)cc3)s2)cc1` ?
### Response 2.61

### Prompt Which Ratio IC50 is listed for `N=C(NC1CCCC1)c1ccc(N2CCN(c3ccc(C(=N)NC4CCCC4)cc3)CC2)cc1` ?
### Response 19.3

### Prompt Which Ratio IC50 is listed for `N=C(N)c1ccc(NC(=O)CCCCCCCC(=O)Nc2ccc(C(=N)N)cc2)cc1` ?
### Response 4.25

### Prompt Which Ratio IC50 is listed for `N=C(NC1CCCC1)c1ccc(N2CCCN(c3ccc(C(=N)NC4CCCC4)cc3)CC2)cc1` ?
### Response 10.6

### Prompt Which Ratio IC50 is listed for `CN(CCN(C)c1ccc(C(=N)N)cc1)c1ccc(C(=N)N)cc1` ?
### Response 20.9

### Prompt Which Ratio IC50 is listed for `CC/N=C(\N)c1ccc(-c2ccc(-c3ccc(/C(N)=N/CC)cc3)o2)cc1` ?
### Response 2.56

### Prompt Which Ratio IC50 is listed for `CN(CCNc1ccc(C(=N)N)cc1)c1ccc(C(=N)N)cc1` ?
### Response 30.2

### Prompt Which Ratio IC50 is listed for `N=C(N)c1ccc(NC(=O)CCCCCCCCCCC(=O)Nc2ccc(C(=N)N)cc2)cc1` ?
### Response 2.98

* * *

TARGET_OR_TEST_SYSTEM: Glutamate NMDA receptor
TEST_PROTOCOL: Displacement of [3H]-MK-801 from rat cortical membranes NMDA receptor by beta counting analysis in absence of spermine
PROPERTY_MEASURED: IC50
State the value, then name its unit.

### Prompt Which IC50 is listed for `C/N=C(\N)c1ccc(-c2ccc(-c3ccc(/C(N)=N/C)cc3)o2)cc1` ?
### Response 6.97 µM

### Prompt Which IC50 is listed for `N=C(N)c1ccc(OCc2ccccc2COc2ccc(C(=N)N)cc2)cc1` ?
### Response 1.46 µM

### Prompt Which IC50 is listed for `N=C(N)c1ccc(COc2ccccc2OCc2ccc(C(=N)N)cc2)cc1` ?
### Response 2.19 µM

* * *

TARGET_OR_TEST_SYSTEM: Glutamate NMDA receptor
TEST_PROTOCOL: Displacement of [3H]-ifenprodil from rat cortical membranes NMDA receptor by beta counting analysis in absence of spermine
PROPERTY_MEASURED: pIC50
Value format note: pIC50 is -log10 of concentration (mol/L); just state the number.

RECORD_SMILES	pIC50
CN(CCCN(C)c1ccc(C(=N)N)cc1)c1ccc(C(=N)N)cc1	4.51
N=C(N)c1ccc(COc2ccccc2OCc2ccc(C(=N)N)cc2)cc1	5.14
N=C(N)c1ccc(N2CCCN(c3ccc(C(=N)N)cc3)CC2)cc1	4.72
CN(CCNc1ccc(C(=N)N)cc1)c1ccc(C(=N)N)cc1	5.15
N=C(N)c1ccc(OCc2ccccc2COc2ccc(C(=N)N)cc2)cc1	5.85

### Prompt Which pIC50 is listed for `N=C(N)c1ccc(OCc2cccc(COc3ccc(C(=N)N)cc3)c2)cc1` ?
### Response 5.40
